Each recorded value in this set is attributed to patent US12187816B2.

- subject.of.test: BRD4 (Homo sapiens, UniProt O60885)
- Construct: Mean 488 intensity of BRD4 quantitated in nuclear region; endogenous in cells; host or cells: EoL-1 eosinophilic leukemia cells
- test.summary: BRD4 degradation assay in EOL1 cells (immunofluorescence imaging)
- Type: cell-based
- condition.set: EoL-1 eosinophilic leukemia cells, 4 hours treatment, nuclear BRD4 immunofluorescence
Starred links: 1 amine or outer side, 2 acyl side, 3 side chain; linkers in the order of their positions; H or OH if unused. Positions of bridges follow the written chain, without caps; N, C: chain ends. Non-standard residues stand in square brackets, D forms with d. Residues, ends and D or L forms follow the SMILES beside them. *: point of attachment. JQ1acid = Cc1sc2c(c1C)C(c1ccc(Cl)cc1)=N[C@@H](CC(=O)*)c1nnc(C)n1-2; Phg(4-(4-Me-thiazol-5-yl)) = Cc1ncsc1-c1ccc([C@H](N)C(=O)O)cc1; X6 = Cc1ncsc1-c1ccc([C@H](CC(=O)[*:2])N[*:1])cc1; dBip = N[C@H](Cc1ccc(-c2ccccc2)cc1)C(=O)O; X7 = O=C([C@H](Cc1ccc(Br)s1)N[*:1])[*:2]; Hyp = O=C(O)[C@@H]1C[C@@H](O)CN1; d(β3hK) = NCCCC[C@@H](N)CC(=O)O; Tle = CC(C)(C)[C@H](N)C(=O)O; dDap = NC[C@@H](N)C(=O)O; Ahx = NCCCCCC(=O)O; AEA = NCCOCC(=O)O
quantity.name: DC50

compound: Cc1sc2c(c1C)C(c1ccc(Cl)cc1)=N[C@@H](CC(=O)NC[C@H]1NC(=O)CNC(=O)[C@H](Cc3ccc(Br)s3)NC(=O)[C@@H]3C[C@@H](O)CN3C(=O)[C@H](C(C)(C)C)NC(=O)CSC[C@H](C(N)=O)NC1=O)c1nnc(C)n1-2 [Compound 20] ({CH2CO}-[Tle][Hyp][X7]G[dDap](JQ1acid)[dC]-NH2; thioether N-6)
reported: < 1000 nM

compound: Cc1sc2c(c1C)C(c1ccc(Cl)cc1)=N[C@@H](CC(=O)NC[C@H]1NC(=O)[C@@H](C)NC(=O)[C@@H](Cc3ccc(-c4ccccc4)cc3)NC(=O)[C@@H]3C[C@@H](O)CN3C(=O)[C@H](C(C)(C)C)NC(=O)COCCNC1=O)c1nnc(C)n1-2 [Compound 41] (cyclo([AEA][Tle][Hyp][dBip][dA][dDap](JQ1acid)))
reported: < 50 nM

compound: Cc1ncsc1-c1ccc([C@@H]2CC(=O)NCC(=O)N[C@H](CNC(=O)C[C@@H]3N=C(c4ccc(Cl)cc4)c4c(sc(C)c4C)-n4c(C)nnc43)C(=O)NCCOCC(=O)N[C@@H](C(C)(C)C)C(=O)N3C[C@H](O)C[C@H]3C(=O)N2)cc1 [Compound 54] (cyclo([AEA][Tle][Hyp][X6]G[dDap](JQ1acid)))
reported: < 50 nM

compound: Cc1ncsc1-c1ccc([C@@H]2NC(=O)[C@@H]3C[C@@H](O)CN3C(=O)[C@H](C(C)(C)C)NC(=O)CNC(=O)C[C@@H](CCCCNC(=O)C[C@@H]3N=C(c4ccc(Cl)cc4)c4c(sc(C)c4C)-n4c(C)nnc43)NC(=O)CNC2=O)cc1 [Compound 37] (cyclo(G[Tle][Hyp][Phg(4-(4-Me-thiazol-5-yl))]G[d(β3hK)](JQ1acid)))
reported: > 20000 nM

compound: Cc1ncsc1-c1ccc([C@@H]2NC(=O)[C@@H]3C[C@@H](O)CN3C(=O)[C@H](C(C)(C)C)NC(=O)CCCCCNC(=O)[C@@H](CNC(=O)C[C@@H]3N=C(c4ccc(Cl)cc4)c4c(sc(C)c4C)-n4c(C)nnc43)NC(=O)CNC2=O)cc1 [Compound 39] (cyclo([Ahx][Tle][Hyp][Phg(4-(4-Me-thiazol-5-yl))]G[dDap](JQ1acid)))
reported: < 1000 nM

compound: Cc1ncsc1-c1ccc([C@@H]2NC(=O)[C@@H]3C[C@@H](O)CN3C(=O)[C@H](C(C)(C)C)NC(=O)COCCNC(=O)[C@@H](CNC(=O)C[C@@H]3N=C(c4ccc(Cl)cc4)c4c(sc(C)c4C)-n4c(C)nnc43)NC(=O)CNC2=O)cc1 [Compound 17] (cyclo([AEA][Tle][Hyp][Phg(4-(4-Me-thiazol-5-yl))]G[dDap](JQ1acid)))
reported: < 1000 nM
